- target_or_system: AhR (Homo sapiens (Human))
- Sequence (P35869 11-848): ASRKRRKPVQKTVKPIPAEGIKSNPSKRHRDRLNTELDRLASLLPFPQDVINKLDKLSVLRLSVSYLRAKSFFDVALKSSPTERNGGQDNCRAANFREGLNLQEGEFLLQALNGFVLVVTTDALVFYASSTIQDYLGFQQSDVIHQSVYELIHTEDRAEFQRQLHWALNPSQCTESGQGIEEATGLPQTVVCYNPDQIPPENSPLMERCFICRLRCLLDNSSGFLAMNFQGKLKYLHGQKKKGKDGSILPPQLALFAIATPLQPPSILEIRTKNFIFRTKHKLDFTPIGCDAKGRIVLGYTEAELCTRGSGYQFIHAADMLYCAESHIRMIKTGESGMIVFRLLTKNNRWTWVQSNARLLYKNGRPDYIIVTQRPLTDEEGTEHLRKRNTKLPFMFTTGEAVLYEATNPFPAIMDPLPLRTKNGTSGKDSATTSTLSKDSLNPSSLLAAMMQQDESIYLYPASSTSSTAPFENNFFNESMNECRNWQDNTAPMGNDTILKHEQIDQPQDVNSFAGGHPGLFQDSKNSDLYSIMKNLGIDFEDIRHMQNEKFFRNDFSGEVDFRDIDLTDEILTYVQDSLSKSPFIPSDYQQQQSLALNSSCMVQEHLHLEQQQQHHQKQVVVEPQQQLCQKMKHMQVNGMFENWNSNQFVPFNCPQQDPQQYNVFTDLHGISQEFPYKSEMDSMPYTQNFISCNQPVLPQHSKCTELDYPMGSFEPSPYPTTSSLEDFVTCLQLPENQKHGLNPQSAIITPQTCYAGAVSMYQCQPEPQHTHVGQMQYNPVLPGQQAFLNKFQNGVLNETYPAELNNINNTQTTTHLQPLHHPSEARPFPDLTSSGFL
- assay_name: ethoxyresorufin-O-deethylase (EROD) assay, AhR activation (CYP1A1 induction)
- Assay type: cell-based
- protocol_conditions: EROD assay, HepG2 cells, 24 h treatment; read-out: EC50 (AhR Activity of Diindolylmethanes)
- Procedure: The human Hep G2 cell line from the Small Molecule Screening and Synthesis Facility (UWCCC, Madison, Wis.) and was maintained in DMEM medium supplemented with 10% FBS. Cells were incubated at 37° C. in a humidified atmosphere supplemented with 5% CO2. Preparation of cells: Cells were cleaved from T75 flasks with 0.05% trypsin. The cells were then collected by spinning at 1 g for 4 min. […] The cells were then counted using a hemocytometer. […]
readout_name: EC50 (nM)
Value expressed in nM; do not type the unit.

• COc1ccc2[nH]cc(Cc3[nH]c4ccccc4c3C=O)c2c1 [Compound 11c] = 230
• c1ccc2[nH]c(Cc3c[nH]c4ccccc34)cc2c1 = 215
• O=Cc1c(Cc2c[nH]c3ccc(Cl)cc23)[nH]c2ccccc12 [Compound 11a] = 93

Consider now this further compound.
For O=Cc1c(Cc2c[nH]c3ccccc23)[nH]c2ccccc12 [Compound 6, reference compound] the compound record lists EC50 as 270
